testedOn: T1, CaBdf1 BD2 (GST-tagged, wild-type) (Candida albicans (strain SC5314 / ATCC …, UniProt Q5A4W8))
T1 chain: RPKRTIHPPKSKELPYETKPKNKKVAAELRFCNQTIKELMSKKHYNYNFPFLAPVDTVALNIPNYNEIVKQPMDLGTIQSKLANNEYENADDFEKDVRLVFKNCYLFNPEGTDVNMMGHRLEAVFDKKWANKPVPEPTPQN
experimentSummary: histone peptide array (Active Motif MODified), 1 uM GST-tagged bromodomain, anti-GST detection, normalized mean intensity
Square brackets hold non-standard residues; d marks the D form. Ends that are not written are not given here. Arg(Me2a) = CN(C)C(=N)NCCC[C@H](N)C(=O)O; Lys(Me3) = C[N+](C)(C)CCCC[C@H](N)C(=O)O; Arg(Me2s) = CN=C(NC)NCCC[C@H](N)C(=O)O; pT = C[C@@H](OP(=O)(O)O)[C@H](N)C(=O)O; Lys(Me2) = CN(C)CCCC[C@H](N)C(=O)O; pS = N[C@@H](COP(=O)(O)O)C(=O)O; Lys(Me) = CNCCCC[C@H](N)C(=O)O; Me2a = not defined here; me2a = not defined here
Would you please tag the item t when its binding score is 0.004 or above, and f when it is below?

Past entries and their recorded results:
# binder, class
measured = [
    ("ARTKQTARKSTGGKAPRKQ (A R pT Kme2 Q T A R K S T G G K A P R K Q)", "f"),
    ("A[Arg(Me2s)][pT]K(Me)QTARKSTGGKAPRKQ", "f"),
    ("AR(Me2s)TK(Me)QTAR(Me2a)K(Me)STGGKAPRKQ (reading uncertain)", "f"),
    ("AR(me2a)TK(Ac)QTAR(me2a)K(me2)STGGKAPRKQ (reading uncertain)", "t"),
    ("A[Arg(Me2a)]T[Lys(Me3)]QTA[Arg(Me2a)][Lys(Me)]STGGKAPRKQ", "t"),
]

Is reported binding score greater than or equal to 0.004 here: PRKQLATKAAR(Me2s)K(Me2)[pS]APATGG
f

Test whether the binder RKSAPATGGVKKPHRYRPG (R K S A P A T G G V Kme1 K P H R Y R P G) [H3 26-45] records binding score of 0.004 or higher.
t

Please indicate if the recorded binding score for SGRGKGGKGLGKGGAKRHR (S G Rme2s G K G G Kac G L G K G G A K R H R) meets or exceeds 0.004.
t

State whether the measured binding score reaches 0.004, counting equality as reaching it, for SGRGKGGKGLGKGGAKRHR (pS G Rme2s G K G G K G L G K G G A K R H R)
f

Could you verify whether the entry R[Arg(Me2s)]K[Lys(Me)]K(Ac)R[Arg(Me2a)][Lys(Me2)]K[Lys(Me3)]R[Lys(Me)][Arg(Me2s)]KK(Ac)RK [background 02] shows binding score of no less than 0.004?
t

Has PRKQLATKAARK(Me)SAPATGG a recorded binding score greater than or equal to 0.004?
f

Entry source: paper PMC5454392
